Cited source for all entries: patent US20200069607A1

# Test system: HeLa (Cervical cancer) cells
# experiment: Cell viability / proliferation assay, HeLa cells
# testParameters: Homo sapiens, 48 h, read-out: IC50, anti-proliferative effect
valueKind: pIC50
The scale used: pIC50 is minus the common logarithm of the concentration in molar units.

Consider `Cc1ccc(C(C)C)c(O)c1` . Its measured pIC50 is 3.40
